Attribution: patent US20090170812A1

Biological target: LcrF (VirF) (Yersinia pestis)
Assay: biochemical
QUANTITY: EC50

Qu. Item N#Cc1ccc(C(=O)Nc2ccc(-c3nc4ccc(C#N)cc4n3O)cc2)cc1 [D] : provide EC50
Ans. < 10 µM

Qu. Item O=C(Nc1ccc(-c2nc3ccc([N+](=O)[O-])cc3n2O)cn1)c1ccc(F)cc1 [AJ] : provide EC50
Ans. 10.1 to 25 µM

###

The reader will find reported EC50 values listed item by item below.
Target: ExsA (Pseudomonas aeruginosa)
Sequence (P26993 whole entry): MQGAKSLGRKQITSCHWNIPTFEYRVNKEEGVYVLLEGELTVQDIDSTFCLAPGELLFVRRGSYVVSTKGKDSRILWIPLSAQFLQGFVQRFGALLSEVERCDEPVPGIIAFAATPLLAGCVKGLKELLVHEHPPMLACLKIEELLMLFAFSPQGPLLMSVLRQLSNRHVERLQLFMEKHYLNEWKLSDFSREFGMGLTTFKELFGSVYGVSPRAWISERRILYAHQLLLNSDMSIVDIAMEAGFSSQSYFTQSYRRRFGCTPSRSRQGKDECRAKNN
Assay: In vitro activity of Mar inhibitors against ExsA: cell-free DNA binding assay
Conditions: purified ExsA from P. aeruginosa, inhibition of DNA binding in vitro

INSERT INTO assay_data (smiles_representation, quantity, result) VALUES
  ('CC(=O)c1ccc(C(=O)Nc2ccc(-c3nc4ncc([N+](=O)[O-])cc4n3O)cc2)cc1', 'EC50', '< 10 µM'),
  ('O=C(/C=C/c1ccc(F)cc1)Nc1ccc(-c2nc3ccc(-n4cccn4)cc3n2O)cc1', 'EC50', '> 25.1 µM'),
  ('O=C(/C=C/c1ccc(F)cc1)Nc1ccc(-c2nc3ccc([N+](=O)[O-])cc3n2O)c(F)c1', 'EC50', '10.1 to 25 µM'),
  ('O=C(/C=C/c1ccc(F)cc1)Nc1ccc(-c2nc3cc(F)c([N+](=O)[O-])cc3n2O)cc1', 'EC50', '> 25.1 µM'),
  ('CC(=O)c1ccc(C(=O)Nc2ccc(-c3nc4cc(C)c([N+](=O)[O-])cc4n3O)cc2)cc1', 'EC50', '< 10 µM');

Qu. Item "COc1cc(NC(=O)c2ccc(C(C)=O)cc2)ccc1-c1nc2ccc([N+](=O)[O-])cc2n1O" : provide EC50
Ans. 10.1 to 25 µM

Qu. Item "CC(=NO)c1ccc2nc(-c3ccc(NC(=O)c4ccc(N(C)C)cc4)cc3)n(O)c2c1" : provide EC50
Ans. > 25.1 µM

Qu. Item "O=C(/C=C/c1ccc(F)cc1)Nc1ccc(-c2nc3ccc([N+](=O)[O-])cc3n2O)cc1F" : provide EC50
Ans. 10.1 to 25 µM

Qu. Item "O=C(/C=C/c1ccc(F)cc1F)Nc1ccc(-c2nc3ccc([N+](=O)[O-])cc3n2O)cn1" : provide EC50
Ans. < 10 µM

Qu. Item "O=C(/C=C/c1ccc(F)cc1)Nc1ccc(-c2nc3ccc([N+](=O)[O-])cc3n2O)nc1" : provide EC50
Ans. < 10 µM

Qu. Item "COc1cc(NC(=O)c2ccc(F)cc2)ccc1-c1nc2ccc([N+](=O)[O-])cc2n1O" : provide EC50
Ans. 10.1 to 25 µM

Qu. Item "CN(C)c1cc2nc(-c3ccc(NC(=O)/C=C/c4ccc(F)cc4)cc3)n(O)c2cc1[N+](=O)[O-]" : provide EC50
Ans. 10.1 to 25 µM

Qu. Item "CCOP(=O)(COn1c(-c2ccc(NC(=O)/C=C/c3ccc(F)cc3)cc2)nc2ccc([N+](=O)[O-])cc21)OCC" : provide EC50
Ans. 10.1 to 25 µM

###

Biological target: LcrF (VirF) (Yersinia pestis, UniProt P28808)
Sequence (P28808 whole entry, looked up): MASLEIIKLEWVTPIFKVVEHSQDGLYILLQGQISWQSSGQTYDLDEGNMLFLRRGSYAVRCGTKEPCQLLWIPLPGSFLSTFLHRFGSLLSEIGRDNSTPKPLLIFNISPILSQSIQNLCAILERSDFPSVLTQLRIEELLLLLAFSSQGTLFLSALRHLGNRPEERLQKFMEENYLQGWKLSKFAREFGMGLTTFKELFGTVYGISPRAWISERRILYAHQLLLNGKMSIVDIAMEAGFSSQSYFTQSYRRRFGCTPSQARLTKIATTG
Assay: biochemical
The reader will find reported EC50 values listed item by item below.

Recorded results for 5 compounds are shown here.
INSERT INTO assay_data (smiles_representation, result) VALUES
  ('CC(=NO)c1ccc2nc(-c3ccc(NC(=O)c4ccc(N(C)C)cc4)cc3)n(O)c2c1', '> 25.1 µM'),
  ('C/C(=C\c1ccccc1)C(=O)Nc1ccc(-c2nc3ccc([N+](=O)[O-])cc3n2O)cc1', '> 25.1 µM'),
  ('O=C(/C=C/c1ccc(F)cc1)Nc1ccc(-c2nc3ccc([N+](=O)[O-])cc3n2O)cn1', '< 10 µM'),
  ('O=C(Nc1ccc(-c2nc3ncc([N+](=O)[O-])cc3n2O)cc1)c1ccc(F)cc1', '10.1 to 25 µM'),
  ('N#Cc1ccc2nc(-c3ccc(NC(=O)/C=C/c4ccc(F)cc4)cc3)n(O)c2c1', '< 10 µM');

Qu. Item "O=C(/C=C/c1ccc(F)cc1)Nc1ccc(-c2nc3ccc(-n4cccn4)cc3n2O)cc1" : provide EC50
Ans. > 25.1 µM

Qu. Item "CC(=O)c1ccc(/C=C/C(=O)Nc2ccc(-c3nc4ccc([N+](=O)[O-])cc4n3O)cc2)cc1" : provide EC50
Ans. 10.1 to 25 µM
